Data origin, for the record: ChEMBL document CHEMBL1127541

# SYSTEM_UNDER_TEST: 5-hydroxytryptamine receptor 1B (Rattus norvegicus, UniProt P28564)
# Sequence (P28564 whole entry): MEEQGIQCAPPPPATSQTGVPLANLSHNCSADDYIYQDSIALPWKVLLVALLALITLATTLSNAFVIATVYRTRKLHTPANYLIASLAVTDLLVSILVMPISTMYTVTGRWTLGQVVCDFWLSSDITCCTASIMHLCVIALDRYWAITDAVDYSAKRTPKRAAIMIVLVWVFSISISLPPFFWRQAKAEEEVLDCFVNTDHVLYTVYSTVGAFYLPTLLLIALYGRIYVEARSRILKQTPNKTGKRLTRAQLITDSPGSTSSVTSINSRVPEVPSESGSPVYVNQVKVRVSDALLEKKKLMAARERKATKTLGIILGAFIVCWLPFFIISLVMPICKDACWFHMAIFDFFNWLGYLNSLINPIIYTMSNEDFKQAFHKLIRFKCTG
QUANTITY_NAME: IC50

COMPOUND | SYSTEM_UNDER_TEST | QUANTITY_NAME | VALUE_OBSERVED
CCCN(CCN1C(=O)CC2(CCCC2)CC1=O)C1COc2cccc(OC)c2C1 (stereo not drawn) | 5-hydroxytryptamine receptor 1B (Rattus norvegicus, UniProt P28564) | IC50 | > 1000 µM
CCCN(CCC)C1COc2cccc(OC)c2C1 (stereo in doubt; (-)-4) | 5-hydroxytryptamine receptor 1B (Rattus norvegicus, UniProt P28564) | IC50 | 1 µM
CCC[N+](C)(CCCCN1C(=O)CC2(CCCC2)CC1=O)C1COc2cccc(OC)c2C1 (stereo not drawn) | 5-hydroxytryptamine receptor 1B (Rattus norvegicus, UniProt P28564) | IC50 | > 1000 µM
